readout_kind: logP

1. Cn1cnc([N+](=O)[O-])n1    -0.68
2. CCOc1cccc2cccnc12    2.25
3. COC    0.1
4. CCCNCC(C)C    2.07
5. C[C@@H](N)[C@@H](O)c1ccccc1    0.67
6. Brc1ccccn1    1.42
7. O=C(O)CCn1nnc2ccccc21    -0.63
8. CCSC(=O)N(CC(C)C)CC(C)C    4.15
9. Cn1c(N)nc2ccccc21    0.95
10. CCSC    1.54
11. O=NN1CCN(N=O)CC1    -0.85
12. N=C(N)c1ccc(N)cc1    -0.37
13. COc1ccc2nc(N)[nH]c2c1    0.57
14. CNC(=O)Oc1ccc(C(C)C)c(C)c1    3.11
